Give melting point for every item shown.

compound	readoutLabel	measurement
CCCOc1ccc(/C=C/C(=O)O)cc1-c1nc2c(CCC)nn(C)c2c(=O)[nH]1	melting point	229 to 230 °C
CCOC(=O)c1cnc2c(NC(=O)c3c(Cl)cccc3Cl)cccc2c1CBr	melting point	199 °C
CC1(Cc2ccccc2)Cc2cc(OCC(=O)O)c(Cl)c(Cl)c2C1=O (stereo not given)	melting point	167 to 168 °C
CN(c1ccncc1)N1CCc2cc(O)ccc2C1	melting point	263 to 266 °C

Here is another compound to look at.
[ask] What value of melting point has been reported for the following compound? "Cc1ccc2c(c1)c1cc(C(=O)O)sc1n2C"
[reply] 216 to 219 °C

====

readoutLabel: melting point

Example compounds with recorded melting point:
compound	measurement
CN(C)C1CN(c2cc3nc4c(cc3cc2F)c(=O)c(C(=O)O)cn4C2CC2)C1	264 °C
O=C1OC(c2ccccc2)CC(O)=C1SCc1ccccc1 (stereo not given)	150 to 152 °C
CCCCCOc1ccc(C(=O)Nc2ccc3cc(CN4CCCC4)cnc3c2C)c(F)c1	143 °C

Working through the 7 compounds below one at a time, give melting point for each.
1. CC(=O)C(Cl)=NNc1ccc([N+](=O)[O-])cc1
2. N#CC(C(=O)O)=C(c1ccc(F)cc1)c1ccc(F)cc1
3. Cc1ccccc1C1CC(=O)CC(c2ccccc2C)N1C (stereo not given)
4. CCCCC[C@H]1CC[C@H](COc2ccc(C(=O)C(F)(F)F)cc2)CC1
5. C#Cc1ccc(-c2c(C)nnc(Cl)c2-c2c(F)cc(F)cc2F)cc1
6. Cc1cc(O)c2c(c1)CCCC2
7. O=C(Nc1ccc(-c2ccccc2Cl)[nH]c1=O)OCc1ccccc1

[reply]
1. 180 to 183 °C
2. 180 to 181 °C
3. 155 to 157 °C
4. 60 °C
5. 174 to 175 °C
6. 95 to 96 °C
7. 213 to 215 °C

====

Give melting point for every item shown.

Example molecules with recorded melting point:
molecule	melting point
COC(=O)C1(C(F)F)c2ccccc2Oc2ccccc21	101 °C
CCN(CC)CCNC(=O)c1cccc2c(=O)c3c(I)cccc3[nH]c12	144 to 146 °C
CC(=O)N(C(=O)C(C)(C)C)C1CC(C)(C)N(OC(=O)C(C)(C)C)C(C)(C)C1	169 to 173 °C
O=C(N[C@@H]1CONC1=O)OCc1ccccc1	135 to 136 °C
c1ccc(C(Sc2nc3ccccc3[nH]2)(c2ccccc2)c2ccccc2)cc1	256 °C
CC(Cc1ccc(OC(C)C)cc1)NCC(O)c1cccc(Cl)c1 (stereo not given)	58 to 61 °C
O=c1c(-c2ccc(Cl)cc2)c[nH]n1-c1ncccn1	190 to 191 °C
NC(=O)Nc1ccccc1CCc1n[nH]c2c1c(=O)n(-c1ccccc1)c1ncccc21	300 to 305 °C
C[C@H]1N=C(c2ccccc2F)c2cc(N)ccc2N(C)C1=O	224 to 226 °C
CCOC(=O)C(NC(C)=O)c1csc(NC(C)=O)n1 (stereo not given)	149 to 150 °C

Working through the 3 molecules below one at a time, give melting point for each.
1. O=[N+]([O-])c1cccnc1NCC(O)CO (stereo not given)
2. COc1cc(N)c2ncccc2c1OCC(F)(F)F
3. Cn1cncc1C(O)(c1ccc([N+](=O)[O-])cc1)c1ccc2c(c1)c(-c1cccc(Cl)c1)cc(=O)n2C (stereo not given)

[reply]
1. 95.5 to 98 °C
2. 91 to 94 °C
3. 230 °C
